The values you see were collected from patent US20250368745A1.

Collected pKd values appear next to each entry.
Molecular target: T1, human IL-18BP (interleukin-18 binding protein, isoform A) (human, UniProt O95998 31-194)
T1 construct: cell assays used Sino Biological 10357-H08H; PBMC assay 1 relies on endogenous IL-18BP; UniProt number is printed as 095998; also called hIL-18BP
T1 sequence: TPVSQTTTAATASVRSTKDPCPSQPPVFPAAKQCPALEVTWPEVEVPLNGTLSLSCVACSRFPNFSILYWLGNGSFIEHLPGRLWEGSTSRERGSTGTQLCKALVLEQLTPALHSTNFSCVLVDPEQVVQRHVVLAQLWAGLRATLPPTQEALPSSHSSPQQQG
Experiment: BLI, affinity column of Table E8
pKd: −log10 of the molar value.

| binder | pKd |
| --- | --- |
| SA327a (antibody, human IgG1, V domains shown, humanized; human IgG1 (suffix a), kappa) VH: QVQLQESGPGLVKPSQTLSLTCTVSGYSITSDYNAHWIRQPPGKGLEWIGYIHYSGSTNYNPSLKSRVTISRDTSKNQFSLKLSSVTAADTAVYYCARNYGSIYVNYFDYWGQGTLVTVSS VL: EIVLTQSPATLSLSPGERATLSCSASSSVSYMYWYQQKPGQAPRPLIYRTSNLASGIPARFSGSGSGTDFTLTISSLEPEDFAVYYCQQYHGYPTFGGGTKVEIK | 9.60 |
| SA326a (antibody, human IgG1, V domains shown, humanized; human IgG1 (suffix a), kappa) VH: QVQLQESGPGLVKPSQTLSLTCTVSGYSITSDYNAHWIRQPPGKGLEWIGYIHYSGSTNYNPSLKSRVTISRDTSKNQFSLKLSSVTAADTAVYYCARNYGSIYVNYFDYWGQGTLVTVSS VL: EIVLTQSPATLSLSPGERATLSCSASSSVSYMYWYQQKPGQAPRPLIYRTSNLASGIPARFSGSGSGTDFTLTISSLEPEDFAVYYCQLYHSYPTFGGGTKVEIK | 9.89 |
| SA322a (antibody, human IgG1, V domains shown, humanized; human IgG1 (suffix a), kappa) VH: QVQLQESGPGLVKPSQTLSLTCTVSGYSITQDYNAHWIRQPPGKGLEWIGYIHYSGQTNYNPSLKSRVTISRDTSKNQFSLKLSSVTAADTAVYYCARNYGSIYVNYFDYWGQGTLVTVSS VL: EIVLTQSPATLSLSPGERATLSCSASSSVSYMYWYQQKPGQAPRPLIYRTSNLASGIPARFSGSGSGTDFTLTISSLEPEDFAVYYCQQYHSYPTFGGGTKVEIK | 10.27 |
| SA338a (antibody, human IgG1, V domains shown, humanized; human IgG1 (suffix a), kappa) VH: QVQLQESGPGLVKPSQTLSLTCTVSGYSITQDYNAHWIRQPPGKGLEWIGYIHYSGQTYYNPSLKSRVTISRDTSKNQFSLKLSSVTAADTAVYYCARNFGSIYVNYFDYWGQGTLVTVSS VL: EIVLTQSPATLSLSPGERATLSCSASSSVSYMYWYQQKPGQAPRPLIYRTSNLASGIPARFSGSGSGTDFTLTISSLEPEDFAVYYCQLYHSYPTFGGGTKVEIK | 10.49 |
| SA307a (antibody, human IgG1, V domains shown, humanized; human IgG1 (suffix a), kappa) VH: QVQLQESGPGLVKPSQTLSLTCTVSGYSITQDYNAHWIRQPPGKGLEWIGYIHYSGSTNYNPSLKSRVTISRDTSKNQFSLKLSSVTAADTAVYYCARNYGSIYVNYFDYWGQGTLVTVSS VL: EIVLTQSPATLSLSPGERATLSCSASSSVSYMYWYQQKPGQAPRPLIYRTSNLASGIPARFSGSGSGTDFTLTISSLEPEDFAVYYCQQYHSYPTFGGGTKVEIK | 10.27 |
